# measured_on: T1, cynomolgus monkey transferrin receptor 1 (cTfR1) (cynomolgus monkey (Macaca fascicularis), UniProt Q5RDH6 89-760 (Pongo abelii entry), limits assumed)
# T1 construct: Recombinant cynomolgus TfR1; also called cyTfR1; cyno TfR1
# T1 chain: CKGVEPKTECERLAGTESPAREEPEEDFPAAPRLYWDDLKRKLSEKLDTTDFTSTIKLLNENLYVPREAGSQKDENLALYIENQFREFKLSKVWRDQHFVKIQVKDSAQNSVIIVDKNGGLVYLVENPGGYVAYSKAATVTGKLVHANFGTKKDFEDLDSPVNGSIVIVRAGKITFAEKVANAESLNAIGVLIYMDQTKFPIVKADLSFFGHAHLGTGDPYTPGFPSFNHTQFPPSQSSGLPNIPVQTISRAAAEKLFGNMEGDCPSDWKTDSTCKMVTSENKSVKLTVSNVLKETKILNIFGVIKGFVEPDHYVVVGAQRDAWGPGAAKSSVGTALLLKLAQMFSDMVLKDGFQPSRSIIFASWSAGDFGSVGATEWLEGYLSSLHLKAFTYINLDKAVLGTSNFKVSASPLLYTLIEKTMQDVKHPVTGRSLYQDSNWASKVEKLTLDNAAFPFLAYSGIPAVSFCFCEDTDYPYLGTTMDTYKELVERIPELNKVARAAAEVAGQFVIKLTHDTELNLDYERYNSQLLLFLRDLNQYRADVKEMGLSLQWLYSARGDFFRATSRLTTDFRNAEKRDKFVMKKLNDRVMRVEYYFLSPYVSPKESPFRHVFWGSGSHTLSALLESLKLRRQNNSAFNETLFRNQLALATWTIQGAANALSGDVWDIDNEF
# protocol: average KD, antibody alone; method not given
assay_endpoint: Kd (nM)

>>> reported_result("3-A4 mouse monoclonal anti-TfR1 antibody (antibody, V domains shown, Mouse mAb (IgG); also called 3-A04) VH: EVQLQQSGAELVRPGASVKLSCTASGFNIKDDYMYWVKQRPEQGLEWIGWIDPENGDTEYASKFQDKATVTADTSSNTAYLQLSSLTSEDTAVYYCTLWLRRGLDYWGQGTSVTVSS VL: DIVMTQAAPSVPVTPGESVSISCRSSKSLLHSNGYTYLFWFLQRPGQSPQLLIYRMSNLASGVPDRFSGSGSGTAFTLRISRVEAEDVGVYYCMQHLEYPFTFGGGTKLEIK")
2.32

Attribution: patent US20240016952A1
